Tested on: Mitochondrial membrane
Test: Induction of mitochondrial membrane potential loss in human A549 cells assessed as red fluorescence at IC50 incubated for 48 hrs MitoTrackerRed CMXRos staining based flow cytometry analysis (reference value: 91.1 %)
Type: cell membranes
readout_name: Activity (%)

[[record]]
smiles_notation = "CC[C@@H](C(=O)[C@@H](C)[C@@H](O)[C@H](C)[C@@H]1O[C@@H]([C@@H](CC)C(=O)OCCCC[P+](c2ccccc2)(c2ccccc2)c2ccccc2)CC[C@@H]1C)[C@H]1O[C@]2(C=C[C@@H](O)[C@]3(CC[C@@](C)([C@H]4CC[C@](O)(CC)[C@H](C)O4)O3)O2)[C@H](C)C[C@@H]1C.[Br-]"
experimental_result = 58.3

[[record]]
smiles_notation = "CC[C@@H](C(=O)[C@@H](C)[C@@H](O)[C@H](C)[C@@H]1O[C@@H]([C@@H](CC)C(=O)O)CC[C@@H]1C)[C@H]1O[C@]2(C=C[C@@H](O)[C@]3(CC[C@@](C)([C@H]4CC[C@](O)(CC)[C@H](C)O4)O3)O2)[C@H](C)C[C@@H]1C"
experimental_result = 91.2

[[record]]
smiles_notation = "CC[C@@H](C(=O)[C@@H](C)[C@@H](O)[C@H](C)[C@@H]1O[C@@H]([C@@H](CC)C(=O)OCc2ccccc2)CC[C@@H]1C)[C@H]1O[C@]2(C=C[C@@H](O)[C@]3(CC[C@@](C)([C@H]4CC[C@](O)(CC)[C@H](C)O4)O3)O2)[C@H](C)C[C@@H]1C"
experimental_result = 74.5

[[record]]
smiles_notation = "CCCC[P+](CCCC)(CCCC)CCCCOC(=O)[C@H](CC)[C@H]1CC[C@H](C)[C@H]([C@@H](C)[C@H](O)[C@H](C)C(=O)[C@H](CC)[C@H]2O[C@]3(C=C[C@@H](O)[C@]4(CC[C@@](C)([C@H]5CC[C@](O)(CC)[C@H](C)O5)O4)O3)[C@H](C)C[C@@H]2C)O1.[Br-]"
experimental_result = 67.3

[[record]]
smiles_notation = "N#CC(C#N)=NNc1cccc(Cl)c1"
experimental_result = 20.2

